System: Amaranthus rudis (AMATA), tall water hemp
Experiment: Postemergence herbicide evaluation, growth of Amaranthus rudis (AMATA)
Format: in vivo
Conditions: Amaranthus tuberculatus, post-emergence, 504 h, 280 g ae/ha, 21 DAA; read-out: Ave. AMATA, percent reduction in plant size relative to the untreated control
Recorded pest or weed control at 280 g/ha by entry
MEASUREMENT_NAME: pest or weed control at 280 g/ha

[[record]]
compound = "O=C(COc1ccc(Cl)cc1Cl)Nc1cc[nH]n1 [Compound D21]"
measurement_name = "pest or weed control at 280 g/ha"
value_observed = "67.5%"

[[record]]
compound = "C/C(=N\\OC(=O)COc1ccc(Cl)cc1Cl)c1ccccc1 [Compound A1]"
measurement_name = "pest or weed control at 280 g/ha"
value_observed = "80%"

[[record]]
compound = "C/C(=N\\OC(=O)COc1ccc(Cl)cc1Cl)c1ccncc1 [Compound A27]"
measurement_name = "pest or weed control at 280 g/ha"
value_observed = "62.5%"

[[record]]
compound = "Cc1nccc(NC(=O)COc2ccc(Cl)cc2Cl)c1C [Compound D26]"
measurement_name = "pest or weed control at 280 g/ha"
value_observed = "75%"

[[record]]
compound = "O=C(COc1ccc(Cl)cc1Cl)O/N=C/c1ccncc1 [Compound A30]"
measurement_name = "pest or weed control at 280 g/ha"
value_observed = "92.5%"

[[record]]
compound = "O=C(COc1ccc(Cl)cc1Cl)Oc1ncc(Cl)cn1 [Compound E13]"
measurement_name = "pest or weed control at 280 g/ha"
value_observed = "86.5%"

[[record]]
compound = "O=C(COc1ccc(Cl)cc1Cl)O/N=C/c1cccnc1 [Compound A29]"
measurement_name = "pest or weed control at 280 g/ha"
value_observed = "72.5%"

[[record]]
compound = "N/C(=N\\OC(=O)COc1ccc(Cl)cc1Cl)c1ccccc1 [Compound A3]"
measurement_name = "pest or weed control at 280 g/ha"
value_observed = "83%"

[[record]]
compound = "O=C(COc1ccc(Cl)cc1Cl)Oc1cccnn1 [Compound E2]"
measurement_name = "pest or weed control at 280 g/ha"
value_observed = "83%"

[[record]]
compound = "O=C(COc1ccc(Cl)cc1Cl)O/N=C/c1ccccn1 [Compound A32]"
measurement_name = "pest or weed control at 280 g/ha"
value_observed = "60%"


----------
Test system: Chenopodium album (CHEAL), common lambsquarters
Assay: Postemergence herbicide evaluation, growth of Chenopodium album (CHEAL)
Type: in vivo
Settings: Chenopodium album, post-emergence, 168 h, 280 g ae/ha, 7 DAA; read-out: Ave. CHEAL, percent reduction in plant size relative to the untreated control
MEASUREMENT_NAME: pest or weed control at 280 g/ha (%)

[[record]]
structure_as_smiles = "O=C(COc1ccc(Cl)cc1Cl)O/N=C/c1ccccn1"
measurement_name = "pest or weed control at 280 g/ha"
value_observed = 82.5

[[record]]
structure_as_smiles = "C/C(=N\\OC(=O)COc1ccc(Cl)cc1Cl)c1cccnc1"
measurement_name = "pest or weed control at 280 g/ha"
value_observed = 72.5

[[record]]
structure_as_smiles = "O=C(COc1ccc(Cl)cc1Cl)Oc1ncc(Cl)cn1"
measurement_name = "pest or weed control at 280 g/ha"
value_observed = 77.5

[[record]]
structure_as_smiles = "Cc1nccc(NC(=O)COc2ccc(Cl)cc2Cl)c1C"
measurement_name = "pest or weed control at 280 g/ha"
value_observed = 75

[[record]]
structure_as_smiles = "O=C(COc1ccc(Cl)cc1Cl)O/N=C/c1ccncc1"
measurement_name = "pest or weed control at 280 g/ha"
value_observed = 80

